Tested on: Escherichia coli ATCC BAA-2469
Experiment: percent growth inhibition of drug alone vs DMSO control; higher = more growth inhibition
Conditions: antibiotic (0.125x MIC): none (0.1% DMSO); 20 µM
Where a name gives a salt, the structure may show the parent alone.
Kindly return 1 if reported percent growth inhibition of drug alone is no lower than 10%; return -1 if it is lower.

Study these solved cases before continuing.
- compound: "Cc1cc(/C=C/c2ccc3cc(N(C)C)ccc3[n+]2C)c(C)n1-c1ccccc1 [Pyrvinium pamoate]"
  category: 1
- compound: "Oc1c(Cl)cc(Cl)c2cccnc12 [Chloroxine]"
  category: 1
- compound: "Clc1cccc(Cl)c1NC1=NCCN1 [Clonidine hydrochloride]"
  category: -1
- compound: "CCCOc1ccc2[nH]c(NC(=O)OC)nc2c1 [Oxibendazol]"
  category: -1
- compound: "O=C(O)CN(CCN(CC(=O)O)CC(=O)O)CCN(CC(=O)O)CC(=O)O [Pentetic acid]"
  category: -1
- compound: "Nc1ncn(C2OC(CO)C(O)C2O)c(=O)n1 (stereo unspecified) [Azacytidine-5]"
  category: 1

Exam item: decide whether the reported percent growth inhibition of drug alone for COc1ccc2c(c1)c(CC(=O)OCC(=O)O)c(C)n2C(=O)c1ccc(Cl)cc1 [Acemetacin] is at least 10%.
-1

Check the entry COc1ccccc1OCC(O)CO (stereo unspecified) [Guaifenesin] : does percent growth inhibition of drug alone equal or exceed 10%?
-1

I'd appreciate it if you could say whether Cc1nnc(NS(=O)(=O)c2ccc(N)cc2)s1 [Sulfamethizole] has percent growth inhibition of drug alone at least equal to 10%.
-1

Item Cc1c(N(C)C)c(=O)n(-c2ccccc2)n1C [Amidopyrine] with percent growth inhibition of drug alone of 10% or above?
-1

Check if percent growth inhibition of drug alone >= 10% (inclusive). Item: CO[C@H]1/C=C/O[C@@]2(C)Oc3c(C)c(O)c4c(O)c(c5c(nc6cc(C)ccn65)c4c3C2=O)NC(=O)/C(C)=C\C=C\[C@H](C)[C@H](O)[C@@H](C)[C@@H](O)[C@@H](C)[C@H](OC(C)=O)[C@@H]1C [Rifaximin]
1

* * *

Test system: Klebsiella pneumoniae KPC-119
Assay: percent growth inhibition of drug + antibiotic vs DMSO control; higher = more growth inhibition
Settings: antibiotic (0.125x MIC): gentamicin; 20 µM
Where a name gives a salt, the structure may show the parent alone.
Reported percent growth inhibition values for a set of molecules
Give the value in % but do not write % after it.

Study these solved cases before continuing.
- molecule: "CN(C)c1ccc(O)c2c1C[C@H]1C[C@H]3[C@H](N(C)C)C(O)=C(C(N)=O)C(=O)[C@@]3(O)C(O)=C1C2=O [Minocycline hydrochloride]"
  recorded number: 95.3
- molecule: "O=C1OCCN1/N=C/c1ccc([N+](=O)[O-])o1"
  recorded number: 99.8
- molecule: "C=CC1=C(C(=O)O)N2C(=O)[C@@H](NC(=O)/C(=N\\OCC(=O)O)c3csc(N)n3)[C@H]2SC1"
  recorded number: 97.5

Sample "Nc1nc(/C(=C/CC(=O)O)C(=O)N[C@@H]2C(=O)N3C(C(=O)O)=CCS[C@H]23)cs1" ; percent growth inhibition observed: 99.4

* * *

Recorded measurements of percent growth inhibition of drug alone, one per entry
System: Escherichia coli ATCC BAA-2469
Assay: percent growth inhibition of drug alone vs DMSO control; higher = more growth inhibition
Conditions: antibiotic (0.125x MIC): none (0.1% DMSO); 7 µM
Counter-ions that a name gives are not always drawn.
Please respond with the number in % and leave the unit unwritten.

# percent growth inhibition of drug alone (molecule: "Nc1nc(O)c2ncn(CCC(CO)CO)c2n1" ) is 1.39

Recorded result, "O=C(O)CN(CCN(CC(=O)O)CC(=O)O)CCN(CC(=O)O)CC(=O)O" , percent growth inhibition of drug alone: 0.0597

percent growth inhibition of drug alone reading for CCCCC(CC)CNC(=N)NC(=N)NCCCCCCNC(=N)NC(=N)NCC(CC)CCCC (stereo not drawn) [Alexidine dihydrochloride] : 102

Entry under test: "O=c1[nH]c(=O)n([C@H]2C[C@H](O)[C@@H](CO)O2)cc1C(F)(F)F" . Its percent growth inhibition of drug alone was 4.84

response.value for "CS(=O)(=O)c1ccc([C@@H](O)[C@@H](CF)NC(=O)C(Cl)Cl)cc1" (field: percent growth inhibition of drug alone) = 21.5

* * *

Tested on: Escherichia coli ATCC BAA-2469
Test: percent growth inhibition of drug alone vs DMSO control; higher = more growth inhibition
Settings: antibiotic (0.125x MIC): none (0.1% DMSO); 7 µM
Counter-ions that a name gives are not always drawn.
measured endpoint: percent growth inhibition of drug alone (%)
// return numeric value only (unit: %, not printed)

Examples with their reported percent growth inhibition of drug alone follow.
- molecule: "COc1cc(NS(=O)(=O)c2ccc(N)cc2)nc(OC)n1 [Sulfadimethoxine]"
  subject of test: "Escherichia coli ATCC BAA-2469"
  measured endpoint: "percent growth inhibition of drug alone"
  recorded number: -0.418
- molecule: "OC(CCN1CCCC1)(c1ccccc1)C1CCCCC1 (stereo not drawn) [Procyclidine hydrochloride]"
  subject of test: "Escherichia coli ATCC BAA-2469"
  measured endpoint: "percent growth inhibition of drug alone"
  recorded number: 3.3
- molecule: "O=C1CN(/N=C/c2ccc([N+](=O)[O-])o2)C(=O)N1 [Nitrofurantoin]"
  subject of test: "Escherichia coli ATCC BAA-2469"
  measured endpoint: "percent growth inhibition of drug alone"
  recorded number: 5.87
- molecule: "O=C(N[C@H](CO)[C@H](O)c1ccc([N+](=O)[O-])cc1)C(Cl)Cl [Chloramphenicol]"
  subject of test: "Escherichia coli ATCC BAA-2469"
  measured endpoint: "percent growth inhibition of drug alone"
  recorded number: 27.7
- molecule: "CO/N=C(\\C(=O)N[C@@H]1C(=O)N2C(C(=O)O)=C(COC(N)=O)CS[C@H]12)c1ccco1 [Cefuroxime sodium salt]"
  subject of test: "Escherichia coli ATCC BAA-2469"
  measured endpoint: "percent growth inhibition of drug alone"
  recorded number: -0.846

The value of percent growth inhibition of drug alone recorded for Cc1cn([C@H]2C[C@H](N=[N+]=[N-])[C@@H](CO)O2)c(=O)[nH]c1=O [Zidovudine, AZT] when tested on Escherichia coli ATCC BAA-2469 reads 102

# percent growth inhibition of drug alone measured on Escherichia coli ATCC BAA-2469 for item COc1ccccc1OCC(O)CO (stereo not drawn) [Guaifenesin] = -0.628

Measured on Escherichia coli ATCC BAA-2469, Oc1c(I)cc(Cl)c2cccnc12 [Clioquinol] has a documented percent growth inhibition of drug alone of 11.8

Origin of values: the supplement of paper PMC6658780
